molecular target: CDK9 (Homo sapiens, UniProt P50750); construct: endogenous in cells; host or cells: MDA-MB-231; assay: CDK protein degradation activity (Western blotting), CDK9; assay type: cell-based; settings: MDA-MB-231 cells, 1 μM, 16 hours, Western blot
Sequence (P50750 whole entry): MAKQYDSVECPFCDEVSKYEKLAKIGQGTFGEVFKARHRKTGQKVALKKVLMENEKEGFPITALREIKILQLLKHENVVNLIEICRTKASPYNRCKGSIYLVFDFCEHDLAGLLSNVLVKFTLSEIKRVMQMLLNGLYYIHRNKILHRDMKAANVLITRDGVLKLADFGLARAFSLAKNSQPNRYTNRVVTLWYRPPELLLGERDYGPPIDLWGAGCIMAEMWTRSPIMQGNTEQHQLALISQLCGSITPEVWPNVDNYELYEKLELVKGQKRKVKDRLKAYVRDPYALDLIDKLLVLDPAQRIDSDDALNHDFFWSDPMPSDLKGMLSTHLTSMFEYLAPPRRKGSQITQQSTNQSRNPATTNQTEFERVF
Endpoint name: Enzyme degradation CDK9 (% remaining) @ 1 μM

{"columns": ["Molecule", "Measurement"],
 "data": [
  ["O=C1CC[C@H](N2C(=O)c3cccc(NCC(=O)N4CCC(CN5CCN(c6ccc(Nc7ncnc8c7ncn8[C@H]7C[C@@H](NC(=O)c8c(Cl)cccc8Cl)C7)cc6)CC5)CC4)c3C2=O)C(=O)N1", "0/0/0%"],
  ["O=C1CC[C@H](N2C(=O)c3ccc(N4CC(C(=O)N5CCC(CN6CCC(CCNc7ncnc8c7ncn8[C@H]7C[C@@H](NC(=O)Cc8ccccc8)C7)CC6)CC5)C4)cc3C2=O)C(=O)N1", "10/10/10%"],
  ["Cc1cccc(C(=O)N[C@H]2C[C@@H](n3cnc4c(NCc5ccc(OCC6CCN(C(=O)CNc7cccc8c7C(=O)N([C@H]7CCC(=O)NC7=O)C8=O)CC6)cc5)ncnc43)C2)n1", "0/0/0%"],
  ["O=C1CC[C@H](N2C(=O)c3ccc(NCC(=O)N4CCC5(CC4)CC(N4CCC(c6ccc(Nc7ncnc8c7ncn8[C@H]7C[C@@H](NC(=O)Cc8ccccc8)C7)cc6)CC4)C5)cc3C2=O)C(=O)N1 (racemic)", "0/0/0%"],
  ["O=C1CC[C@@H](c2ccc(OCC(=O)N3CCC4(CC3)CC(N3CCC(c5ccc(Nc6ncnc7c6ncn7C6CC(NC(=O)Cc7ccccc7)C6)cc5)CC3)C4)cc2)C(=O)N1 (stereo partly shown)", "0/0/0%"]
]}

The reported value for N#Cc1cccc(C(=O)N[C@H]2C[C@@H](n3cnc4c(Nc5ccc(N6CCN(CC7CCN(C(=O)C8CCN(c9ccc%10c(c9)C(=O)N(C9CCC(=O)NC9=O)C%10=O)CC8)CC7)CC6)cc5)ncnc43)C2)n1 (stereo partly shown) in terms of Enzyme degradation CDK9 (% remaining) @ 1 μM is 0/0/0%

The reported value for O=C1CC[C@H](n2nnc3ccc(N4CCC(CN5CCN(c6ccc(Nc7ncnc8c7ncn8C7CC(NC(=O)c8cccc(F)n8)C7)cc6)CC5)CC4)cc3c2=O)C(=O)N1 (stereo partly shown) in terms of Enzyme degradation CDK9 (% remaining) @ 1 μM is 0/0/0%

The reported value for Cc1cccc(C(=O)N[C@H]2C[C@@H](n3cnc4c(Nc5ccc(N6CCN(CC7CCN(C(=O)COc8cccc9c8C(=O)N(C8CCC(=O)NC8=O)C9=O)CC7)CC6)cc5)ncnc43)C2)n1 (stereo partly shown) in terms of Enzyme degradation CDK9 (% remaining) @ 1 μM is 0/0/0%

The reported value for "O=C1CC[C@H](N2C(=O)C=C(N3CCC(C(=O)N4CCC(CN5CCN(c6ccc(Nc7ncnc8c7ncn8[C@H]7C[C@@H](NC(=O)Cc8ccccc8)C7)cc6)CC5)CC4)CC3)C2=O)C(=O)N1" in terms of Enzyme degradation CDK9 (% remaining) @ 1 μM is 0/0/0%

The reported value for "O=C1CC[C@@H](c2ccc(OCC(=O)N3CCC(CCN4CCN(c5ccc(Nc6ncnc7c6ncn7[C@H]6C[C@@H](NC(=O)c7cccc(C(F)(F)F)n7)C6)cc5)CC4)CC3)cc2)C(=O)N1" in terms of Enzyme degradation CDK9 (% remaining) @ 1 μM is 10/10/10%
